src = patent US9676760B2

# experimental.target: wild-type human cardiac sodium channel, hNav1.5 (Homo sapiens, UniProt Q14524)
# Sequence (Q14524 whole entry): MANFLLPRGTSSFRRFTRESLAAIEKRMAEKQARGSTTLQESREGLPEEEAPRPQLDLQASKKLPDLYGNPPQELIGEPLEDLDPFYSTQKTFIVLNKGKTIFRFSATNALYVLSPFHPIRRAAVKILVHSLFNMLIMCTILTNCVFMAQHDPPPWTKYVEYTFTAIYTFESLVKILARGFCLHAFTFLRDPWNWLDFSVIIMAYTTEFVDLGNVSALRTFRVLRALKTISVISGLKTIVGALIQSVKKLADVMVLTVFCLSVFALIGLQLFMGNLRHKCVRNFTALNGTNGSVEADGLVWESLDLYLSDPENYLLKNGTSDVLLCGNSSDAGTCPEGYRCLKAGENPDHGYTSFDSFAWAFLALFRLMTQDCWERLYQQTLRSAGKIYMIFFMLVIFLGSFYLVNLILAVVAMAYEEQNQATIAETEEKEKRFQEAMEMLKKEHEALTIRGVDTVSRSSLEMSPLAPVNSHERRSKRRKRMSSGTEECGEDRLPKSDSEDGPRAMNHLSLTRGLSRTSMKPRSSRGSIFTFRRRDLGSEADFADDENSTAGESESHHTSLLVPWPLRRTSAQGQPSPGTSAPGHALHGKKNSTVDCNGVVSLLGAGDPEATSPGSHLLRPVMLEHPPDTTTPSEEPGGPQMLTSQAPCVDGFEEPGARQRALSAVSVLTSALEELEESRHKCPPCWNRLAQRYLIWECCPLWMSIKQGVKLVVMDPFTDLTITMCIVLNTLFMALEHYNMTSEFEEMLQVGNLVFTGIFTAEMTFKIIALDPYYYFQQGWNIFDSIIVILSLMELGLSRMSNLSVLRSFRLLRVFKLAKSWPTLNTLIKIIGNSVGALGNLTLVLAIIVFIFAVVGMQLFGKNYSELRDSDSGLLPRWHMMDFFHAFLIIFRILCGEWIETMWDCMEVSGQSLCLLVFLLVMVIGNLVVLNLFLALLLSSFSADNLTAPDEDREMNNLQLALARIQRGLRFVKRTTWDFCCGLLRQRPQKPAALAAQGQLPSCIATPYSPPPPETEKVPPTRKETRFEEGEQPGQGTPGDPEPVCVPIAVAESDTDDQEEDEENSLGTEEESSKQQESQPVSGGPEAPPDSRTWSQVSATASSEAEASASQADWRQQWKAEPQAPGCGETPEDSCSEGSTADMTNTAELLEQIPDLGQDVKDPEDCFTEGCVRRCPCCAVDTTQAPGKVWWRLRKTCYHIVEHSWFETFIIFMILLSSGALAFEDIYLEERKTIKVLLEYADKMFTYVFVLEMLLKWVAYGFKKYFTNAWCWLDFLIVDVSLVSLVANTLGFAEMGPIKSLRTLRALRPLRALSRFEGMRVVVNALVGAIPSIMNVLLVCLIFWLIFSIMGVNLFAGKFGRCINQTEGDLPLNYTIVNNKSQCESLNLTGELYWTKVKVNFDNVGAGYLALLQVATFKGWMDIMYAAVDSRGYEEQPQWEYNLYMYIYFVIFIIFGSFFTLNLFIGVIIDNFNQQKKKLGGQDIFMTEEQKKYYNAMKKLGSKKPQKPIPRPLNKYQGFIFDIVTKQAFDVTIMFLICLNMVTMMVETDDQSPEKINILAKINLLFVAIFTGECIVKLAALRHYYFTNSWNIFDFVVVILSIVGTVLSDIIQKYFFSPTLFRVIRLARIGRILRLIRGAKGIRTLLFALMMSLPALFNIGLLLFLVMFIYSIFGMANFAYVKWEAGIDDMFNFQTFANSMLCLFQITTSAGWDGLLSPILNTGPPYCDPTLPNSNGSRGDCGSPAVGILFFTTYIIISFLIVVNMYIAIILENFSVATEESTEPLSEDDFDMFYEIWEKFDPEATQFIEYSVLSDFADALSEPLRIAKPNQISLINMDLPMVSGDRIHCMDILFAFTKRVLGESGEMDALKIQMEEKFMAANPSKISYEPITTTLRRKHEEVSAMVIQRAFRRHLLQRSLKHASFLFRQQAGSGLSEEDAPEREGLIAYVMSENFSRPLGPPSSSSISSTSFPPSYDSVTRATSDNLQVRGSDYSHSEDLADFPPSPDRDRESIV
# assay.info: Peak INa screening assay (tonic and use-dependent block)
# Assay type: cell-based
# condition.notes: tonic block of peak INa, 0.1 Hz; compound at 1 μM; read-out: Peak TB 1 μM
measured.quantity: inhibition at 1 µM (%)
One number for each entry, in %.

Record excerpt, results attached:
# chemical.structure, measured.quantity, readout.number
measured = [
    ("O=C(Cc1ccccn1)N1CCOc2ccc(-c3ccc(C(F)(F)F)cc3)cc2C1", "inhibition at 1 µM", 11),
    ("O=C1c2cc(Nc3ccc(OC(F)(F)F)cc3)ccc2OCCN1Cc1ccccn1", "inhibition at 1 µM", 8),
    ("O=C1c2cc(-c3ccc(OC(F)(F)F)cc3)ccc2OCCN1Cc1cn2ccccc2n1", "inhibition at 1 µM", 23),
    ("Cc1ccnc(CN2CCOc3ccc(-c4ccc(OC(F)(F)F)cc4)cc3C2=O)n1", "inhibition at 1 µM", 16),
    ("O=C1c2nc(-c3ccc(C(F)(F)F)cc3)ccc2OCCN1Cc1ccccc1", "inhibition at 1 µM", 51),
    ("O=C1c2cc(-c3ccc(OC(F)(F)F)cc3)ncc2OCCN1Cc1ncccc1F", "inhibition at 1 µM", 25),
    ("O=C1c2cc(-c3ccc(C(F)F)cc3)ccc2OCCN1Cc1ccccn1", "inhibition at 1 µM", 13),
    ("O=C1c2cc(-c3ccc(OC(F)(F)F)cc3)ccc2OCCN1Cc1ccccc1Cl", "inhibition at 1 µM", 13),
]

State the recorded inhibition at 1 µM for every item in the following list.
1. Cc1cnn(CN2CCOc3ccc(-c4ccc(OC(F)(F)F)cc4)cc3C2=O)c1
2. O=C1c2cc(-c3ccc(OCC4CCC4)cc3)ccc2OCCN1Cc1ncccn1

1: 13; 2: 34
